Cited source for all entries: patent US20230158025A1

SYSTEM_TESTED: recombinant human GALK1 (Homo sapiens, UniProt P51570)
Sequence (P51570 whole entry): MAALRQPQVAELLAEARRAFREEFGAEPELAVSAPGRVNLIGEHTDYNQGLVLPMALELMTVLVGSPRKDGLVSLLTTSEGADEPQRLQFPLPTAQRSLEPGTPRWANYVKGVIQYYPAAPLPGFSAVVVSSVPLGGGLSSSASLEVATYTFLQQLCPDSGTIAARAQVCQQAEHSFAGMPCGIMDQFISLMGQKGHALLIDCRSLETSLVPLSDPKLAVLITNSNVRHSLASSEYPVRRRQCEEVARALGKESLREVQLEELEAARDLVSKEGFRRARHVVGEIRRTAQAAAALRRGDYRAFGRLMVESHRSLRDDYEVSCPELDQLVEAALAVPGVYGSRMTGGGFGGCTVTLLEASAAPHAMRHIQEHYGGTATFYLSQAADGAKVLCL
ASSAY_OVERVIEW: hGALK1 biochemical activity assay (Kinase-Glo Plus, ATP depletion)
PARTICULARS: recombinant human GALK1, Kinase-Glo Plus ATP depletion; read-out: hGALK
PARAMETER: IC50 (nM)

# COMPOUND, ASSAY_VALUE
records = [
    ("CCn1cc(CNC(=O)C2=C(C)NC(Nc3nc4cccc(N)c4o3)=NC2c2ccc(F)cc2Cl)cn1 (stereo not shown)", 760),
    ("CC1=C(C(=O)NCc2cnn(Cc3ccccc3)c2)C(c2ccc(C)cc2Cl)N=C(Nc2nc3ccc(F)cc3o2)N1 (stereo not shown)", 1720),
    ("CC1=C(C(=O)Nc2cc(C(=O)O)ccc2Cl)C(c2ccccc2Cl)N=C(Nc2nc3ccc(F)cc3o2)N1 (stereo not shown)", 1540),
    ("CC1=C(C(=O)Nc2ccc([N+](=O)[O-])cc2)C(c2ccccc2Cl)N=C(Nc2nc3ccccc3o2)N1 (stereo not shown)", 3430),
    ("CC1=C(C(=O)Nc2cc(C(=O)O)ccn2)C(c2ccc(C)cc2Cl)N=C(Nc2nc3ccc(F)cc3o2)N1 (racemic)", 390),
    ("CC1=C(C(=O)Nc2cc(C(=O)O)ccc2F)C(c2ccccc2Cl)N=C(Nc2nc3ccc(F)cc3o2)N1 (stereo not shown)", 2170),
    ("CC1=C(C(=O)Nc2cc(C(=O)O)ccn2)C(c2ccc(C#N)cc2Cl)N=C(Nc2nc3ccc(F)cc3o2)N1 (stereo not shown)", 610),
]
